Cited source: PubChem BioAssay (NCI)

System: TK-10 renal
Assay: NCI tumour cell line growth inhibition, 48 h
outcome_measure: TGI

molecule	subject_of_test	outcome_measure	result
CCOC(=O)/C(=C/c1ccccn1)C(=O)c1ccccc1	TK-10 renal	TGI	32.3 µM
CCN(CC)c1ccc2nc3ccc(=[N+](CC)CC)cc-3oc2c1	TK-10 renal	TGI	3.57 µM
COc1ccccc1Oc1nccc(-c2c(-c3ccc(F)cc3)ncn2C2CCNCC2)n1	TK-10 renal	TGI	> 25 µM

Asked: Would you kindly share the measured TGI for CC(=O)c1ccc(N=NN2CCCC2)cc1 ?
Given back: > 100 µM

Asked: Now the molecule O=C(c1ccccc1)[C@H]1Nc2ccc(Cl)cc2[C@H]2CCC[C@@H]12
Given back: > 100 µM

Asked: Now the molecule CC(=O)c1ccc(Nc2c3c(nc4ccccc24)CCCC3)cc1
Given back: > 100 µM

Asked: Now the molecule NC1=NC2(COC(c3ccccc3)(c3ccccc3)c3ccccc3)OC(COC(c3ccccc3)(c3ccccc3)c3ccccc3)C(O)C2O1 (stereo not drawn)
Given back: > 100 µM

Asked: Now the molecule Cc1cc(Cl)nc(N(CCNc2ccnc3cc(Cl)ccc23)Cc2ccco2)n1
Given back: 8.39 µM

Asked: Now the molecule CCCCS(=O)c1sc2nc(-c3cccs3)cc(-c3ccccc3)c2c1N (stereo not drawn)
Given back: > 84 µM

Asked: Now the molecule CC(C)(CN1CCCCC1)C(=O)/C=C/c1ccc(Br)cc1
Given back: 10.2 µM

Asked: Now the molecule Clc1ccc(C=Nc2ccc(Oc3ccc(Cl)cc3)c(Cl)c2)cc1
Given back: > 100 µM

Asked: Now the molecule Cc1ccc(NC(=O)c2cc(S(=O)(=O)Nc3nnc(-c4ccccc4)c(-c4ccccc4)n3)c(SCc3ccccc3)cc2Cl)cc1
Given back: 40.6 µM

Asked: Now the molecule CCCCCCCCCCCCCCNC(=O)Nc1ccc(Cl)c(Cl)c1
Given back: 7.4 µM

----------
Test system: HOP-62 NSCLC
Test: NCI tumour cell line growth inhibition, 48 h
outcome_measure: GI50

See these solved cases before continuing.
compound	GI50
Cc1cc(Cl)nc(N(CCNc2ccnc3cc(Cl)ccc23)Cc2ccco2)n1	2.04 µM
ClCCOCCn1cnc2c(Cl)nc(Cl)nc21	15.7 µM

Asked: Would you kindly share the measured GI50 for CCCCCC(=O)O[C@]1(C(C)=O)CCC2C3CCC4=CC(=O)CC[C@]4(C)C3CC[C@@]21C (stereo partly drawn) ?
Given back: 3.33 µM

Asked: Now the compound N#CC(C#N)=C/C=C(\Sc1ccc(Cl)cc1)c1ccc(F)cc1
Given back: 2.54 µM

Asked: Now the compound COc1cc(C(=O)/C=C/c2cccc(Nc3ccnc4cc(Cl)ccc34)c2)cc(OC)c1OC
Given back: 0.676 µM

Asked: Now the compound CCCCS(=O)c1sc2nc(-c3cccs3)cc(-c3ccccc3)c2c1N (stereo not drawn)
Given back: 31.1 µM

Asked: Now the compound C=CCN(CC=C)C(=O)c1cc(C)nc2c1c(=O)n(-c1ccccc1)c(=O)n2CCCN1CCN(c2ccccc2OC)CC1
Given back: > 50 µM

Asked: Now the compound CC(=O)NC1C(O[C@H]2C[C@H]3[C@@H]4CC=C5C[C@@H](O)CC[C@]5(C)[C@H]4CC[C@]3(C)[C@H]2[C@H](C)C(=O)CCC(C)C)OCC(O)C1O (stereo partly drawn)
Given back: 2.18 µM

Asked: Now the compound CCC(c1ccccc1)c1noc(CCN(CC)CC)n1 (stereo not drawn)
Given back: 42.5 µM
